# Test system: SN12C
Lab note: anything with GI50 below 3000 nM is marked YES; values at 3000 nM or higher are marked NO.

# count of solved cases: 3
INSERT INTO results (compound, label_value) VALUES
  ('COc1ccc(-c2nc3sccn3c2/C=C/C(=O)c2cc(OC)c(OC)c(OC)c2)cc1', 'YES'),
  ('COc1cc(C(=O)/C=C/c2c(C(F)(F)F)nc3sccn23)cc(OC)c1OC', 'YES'),
  ('COc1cc(C(=O)/C=C/c2c(-c3ccc(F)cc3)nc3sccn23)cc(OC)c1OC', 'YES');

Continue with the next compound.
Ask: Bench note: check whether COc1cc(C(=O)/C=C/c2c(-c3ccc(F)cc3)nc3sc(C)cn23)cc(OC)c1OC [Compound 19e] shows GI50 below 3000 nM
Reply: NO

----------
# System: Non-small-cell lung cancer cell lines
# protocol notes: NCI in vitro cytotoxicity, whole panel
# Type: cell-based
# test conditions: Homo sapiens; Non-small-cell lung; average of six to eight cell lines; read-out: Log10 GI50 (converted)
In plain terms, low GI50, meaning strictly below 4000 nM, gives Fulfilled, and everything else gives Not fulfilled.

INSERT INTO results (compound, label_value) VALUES
  ('COc1cc(C(=O)/C=C/c2c(C(F)(F)F)nc3sccn23)cc(OC)c1OC', 'Fulfilled'),
  ('COc1ccc(-c2nc3sccn3c2/C=C/C(=O)c2cc(OC)c(OC)c(OC)c2)cc1', 'Fulfilled'),
  ('COc1cc(C(=O)/C=C/c2c(-c3ccc(F)cc3)nc3sccn23)cc(OC)c1OC', 'Fulfilled');

Ask: Bench note: check whether COc1cc(C(=O)/C=C/c2c(-c3ccc(F)cc3)nc3sc(C)cn23)cc(OC)c1OC [Compound 19e] shows GI50 below 4000 nM
Reply: Not fulfilled

----------
# System: MOLT-4
# protocol notes: NCI in vitro cytotoxicity (SRB, 48 h), Leukemia panel
# Format: cell-based
# test conditions: Homo sapiens; MOLT-4, Leukemia; 48 h exposure
// GI50 lookup, one value per entry
Note: unit nM is implicit; provide only the numeric part.

Some solved cases for reference:
INSERT INTO results (compound, outcome_measure, value_observed) VALUES
  ('COc1cc(C(=O)/C=C/c2c(C(F)(F)F)nc3sccn23)cc(OC)c1OC', 'GI50', 1920),
  ('COc1cc(C(=O)/C=C/c2c(-c3ccc(F)cc3)nc3sccn23)cc(OC)c1OC', 'GI50', 2070),
  ('COc1ccc(C(=O)/C=C/c2c(C(F)(F)F)nc3sccn23)cc1OC', 'GI50', 2220),
  ('COc1cc(C(=O)/C=C/c2c(-c3ccc(F)cc3)nc3sc(C)cn23)cc(OC)c1OC [Compound 19e]', 'GI50', 1620);

Ask: Name the recorded GI50 for `COc1ccc(-c2nc3sccn3c2/C=C/C(=O)c2cc(OC)c(OC)c(OC)c2)cc1` .
Reply: 2520

----------
# Test system: SK-MEL-2
outcome measure: GI50 (nM)
Report the figure in nM without appending any unit label.

In the examples that follow, each entry is paired with its recorded GI50.
INSERT INTO assay_data (compound, outcome_measure, value_observed) VALUES
  ('COc1ccc(-c2nc3sccn3c2/C=C/C(=O)c2cc(OC)c(OC)c(OC)c2)cc1', 'GI50', 2420),
  ('COc1cc(C(=O)/C=C/c2c(C(F)(F)F)nc3sccn23)cc(OC)c1OC', 'GI50', 2260),
  ('COc1cc(C(=O)/C=C/c2c(-c3ccc(F)cc3)nc3sc(C)cn23)cc(OC)c1OC [Compound 19e]', 'GI50', 5750);

Ask: Given the entry `COc1ccc(C(=O)/C=C/c2c(C(F)(F)F)nc3sccn23)cc1OC` , what GI50 was observed with SK-MEL-2?
Reply: 4080

Ask: Give SK-MEL-2 GI50 for `COc1cc(C(=O)/C=C/c2c(-c3ccc(F)cc3)nc3sccn23)cc(OC)c1OC`
Reply: 2520
